Reference source: ChEMBL document CHEMBL4689842

- Tested on: HEK-293T
- procedure details: Multiplex assay against HEK293T
- Format: toxicity, cell-based
- measurement setup: human, 24 h, 1 µM, compound concentration 1 uM, replicate 2
Threshold rule: Population Membrane Permeable-Phenotype (%) greater than or equal to 2% is condition met; below that, condition not met.

[
  {
    "compound": "CCOc1cc(N2CCC(O)CC2)ccc1Nc1ncc2c(n1)N(C1CCCC1)CCC(=O)N2C",
    "experimental target": "HEK-293T",
    "class label": "condition not met"
  },
  {
    "compound": "CC(=O)c1cc(-c2cc(C(=O)NC3CC3)ccc2C)c2ncccn12",
    "experimental target": "HEK-293T",
    "class label": "condition not met"
  },
  {
    "compound": "O=C(O)c1ccc2cc(-c3ccc(O)c(C45CC6CC(CC(C6)C4)C5)c3)ccc2c1 [O-DEMETHYLATED ADAPALENE]",
    "experimental target": "HEK-293T",
    "class label": "condition met"
  },
  {
    "compound": "CCOc1cc2ncc(C#N)c(Nc3ccc(OCc4cccc(F)c4)c(Cl)c3)c2cc1NC(=O)/C=C/CN(C)C [HKI-357]",
    "experimental target": "HEK-293T",
    "class label": "condition met"
  },
  {
    "compound": "Cc1nc(Cc2cccc(C(F)(F)F)c2)sc1-c1ccc(C(N)=O)nc1 [TP-024n]",
    "experimental target": "HEK-293T",
    "class label": "condition met"
  }
]

* * *

- Tested on: HEK-293T
- procedure details: Multiplex assay against HEK293T
- Type: toxicity, cell-based
- measurement setup: human, 24 h, 10 µM, compound concentration 10 uM, replicate 1
Each record here notes measured Population Mitotic Cells (%).

[
  {
    "compound": "CNC(=O)c1cc(Oc2ccc(NC(=O)Nc3cc(C(C)(C)C)nn3-c3ccc4ncccc4c3)c(F)c2)ccn1 [REBASTINIB]",
    "Population Mitotic Cells (%)": "53%"
  },
  {
    "compound": "CCCn1c(=O)c2[nH]c(C34CC5CC(CC3C5)C4)nc2n(CCC)c1=O [ROLOFYLLINE]",
    "Population Mitotic Cells (%)": "22%"
  },
  {
    "compound": "O=C(O)c1ccc2cc(-c3ccc(O)c(C45CC6CC(CC(C6)C4)C5)c3)ccc2c1 [O-DEMETHYLATED ADAPALENE]",
    "Population Mitotic Cells (%)": "47%"
  }
]

* * *

Each record here notes measured Population Mitochondria Different-Phenotype (%).
- Test system: U2OS
- procedure details: Multiplex assay against U2OS
- Assay type: toxicity, cell-based
- measurement setup: human, 24 h, 10 µM, compound concentration 10 uM, replicate 2
quantity kind: Population Mitochondria Different-Phenotype (%)

[
  {
    "compound": "CC(C)(C)c1cnc(CSc2cnc(NC(=O)C3CCNCC3)s2)o1 [BMS-387032]",
    "observed result": 41
  },
  {
    "compound": "Cc1cc2c(cc1N1C(=O)c3cccc4c(CCCO)ccc(c34)C1=O)n(C)c(=O)n2C",
    "observed result": 76
  },
  {
    "compound": "CN(C)C/C=C/C(=O)Nc1cc2c(Nc3ccc(F)c(Cl)c3)ncnc2cc1O[C@H]1CCOC1.O=C(O)/C=C\\C(=O)O.O=C(O)/C=C\\C(=O)O [AFATINIB DIMALEATE]",
    "observed result": 72
  },
  {
    "compound": "CC(=O)c1cc(-c2cc(C(=O)NC3CC3)ccc2C)c2ncccn12",
    "observed result": 12
  }
]
